Target: bFGF (soluble stimulus added to cell cultures)
Experiment: cell-based or functional assay
reported endpoint: IC50, proliferation of HDMEC cells +bFGF (10 ng/ml) (nM)
# number only, unit nM dropped from output

Input line: What measured IC50, proliferation of HDMEC cells +bFGF (10 ng/ml) goes with Nb-VF3 (bispecific antibody, Bispecific tandem VHH (VEGF and bFGF); with c-myc and histidine tag) QVQLVESGGGLVQPGGSLRLSCAASGNSAEDRLYNSYTWFRQAPGQGLEAVAAISSHFSAGLTYYADSVKGRFTISRDNSKNTLYLQMNSLRAEDTAVYYCEITSHASHNDAWSTPRTVWGQGTLVTVSSAHHSEDPSSKAPKAPAQVQLVESGGGLVQPGGSLRLSCAASGTEDGRLLTLGGSWFRQAPGQGLEAVAAIGAGDRGGATYYADSVKGRFTISRDNSKNTLYLQMNSLRAEDTAVYYCTALYERQPQLAATKVARKWGQGTLVTVSSAAAGSEQKLISEEDLNSHHHHHH ?
Output line: 120
